These measurements were taken from patent US20100233154A1.

Molecular target: T1, human heparanase (Homo sapiens, UniProt Q9Y251)
T1 sequence (Q9Y251 36-543): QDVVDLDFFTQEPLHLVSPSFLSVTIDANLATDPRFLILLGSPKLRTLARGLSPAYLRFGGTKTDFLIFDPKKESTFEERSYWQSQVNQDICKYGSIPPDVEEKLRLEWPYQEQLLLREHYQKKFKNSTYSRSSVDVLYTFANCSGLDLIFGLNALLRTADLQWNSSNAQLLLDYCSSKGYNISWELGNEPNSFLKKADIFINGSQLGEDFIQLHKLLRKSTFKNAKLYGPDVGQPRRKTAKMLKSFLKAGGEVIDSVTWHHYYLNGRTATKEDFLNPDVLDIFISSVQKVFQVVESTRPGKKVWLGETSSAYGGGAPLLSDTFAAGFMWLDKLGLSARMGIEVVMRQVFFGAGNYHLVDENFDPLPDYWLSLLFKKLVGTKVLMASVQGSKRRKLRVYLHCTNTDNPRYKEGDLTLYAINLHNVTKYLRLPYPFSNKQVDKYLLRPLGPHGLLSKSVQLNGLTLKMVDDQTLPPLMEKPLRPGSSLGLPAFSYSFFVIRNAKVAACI
Experiment: Cross species capture ELISA, human heparanase
Format: binding
Protocol: Initially, cross species binding to human, murine and cynomolgus heparanase was determined in an ELISA assay in which heparanase was captured onto plates using a rabbit anti-heparanase antibody (Raybiotech, Cat. IP-14-155). Exhaustive supernatants were added to the plates at a final dilution of 1:5 and bound antibody detected with a rabbit anti-human IgG Fc.
Measured metric: Binding to heparanase Human (OD units)
I only need the number, in OD units, no unit after it.

Entry under review: 15A1.2: fully human anti-heparanase monoclonal antibody, G2κ; VH SEQ ID NO 6, VL SEQ ID NO 8; ATCC PTA-9491 (antibody, listed as Homo Sapiens, V domains shown, fully human anti-heparanase monoclonal antibody, G2κ; ATCC PTA-9491) VH: QVQLVQSGAEVKKPGASVKVSCKVSGYTLTELSMHWVRQAPGKGLEWMGGFDPEDGETIFAQKFQGRVTMTEDTSTDTAYMELSSLRSEDTAVYYCATGLRFLEWFLWGWDVWGQGTTVTVSS VL: DIQMTQSPSSVSASVGDRVTITCRASQGISNWLAWYQQTPGKAPQLLIYGASSLQSGVPSRFSGSGSGTDFTLTISSLQPEDFATYYCQQADSFPPTFGQGTKVEIK . Reported Binding to heparanase Human?
0.19
